# System: CAKI-1
# EXPERIMENT: NCI tumour cell line growth inhibition, 48 h
Activity calls are given as the source filed them. No stated cut-off is given here; in the data, active = GI50 up to about 1.1 µM and inactive = higher.
TEST READOUT: GI50

Req: I am curious: what GI50 value has been reported for `C(=N\c1ccc(-c2nc3ccccc3s2)cc1)/c1cccs1` ?
Resp: 38.5 µM (inactive)

Req: Now the same for `Cc1cc(Cc2c(F)c(F)c(Cc3cc(C)no3)c(F)c2F)on1`
Resp: 12.2 µM (inactive)

Req: Now the same for O=C1NC(=O)C(COCc2ccccc2)C2=C1SCCC2 (centres undefined)
Resp: > 100 µM (inactive)

Req: Now the same for `CCCCCCCCCCCCCCCCP(=O)(OC)OC`
Resp: 16.6 µM (inactive)

Req: Now the same for `O=S(=O)(O)c1ccc(/N=N/c2ccccc2)cc1`
Resp: > 100 µM (inactive)

Req: Now the same for `O=C(CSCC(=O)N/N=C\c1cc(Cl)cc(Cl)c1O)N/N=C\c1cc(Cl)cc(Cl)c1O`
Resp: 3.48 µM (inactive)

Req: Now the same for `Nc1ncnc2c1ncn2-c1ccc([N+](=O)[O-])cn1`
Resp: > 100 µM (inactive)

Req: Now the same for `CSc1ccc2c(cc1=O)[C@@H](NC(=O)c1ccc(F)cc1)CCc1cc(O)c(O)c(O)c1-2`
Resp: > 100 µM (inactive)

Req: Now the same for Cc1cc(CC(O)c2ccc(Cl)c(Cl)c2)nc(O)n1 (centres undefined)
Resp: 21.7 µM (inactive)

Req: Now the same for `O=C(/C=C/c1cccc(Br)c1)c1cccs1`
Resp: 16.1 µM (inactive)

Req: Now the same for CC(C)(C)NC1C2CCC(C)(C1O)C2(C)C (centres undefined)
Resp: > 100 µM (inactive)

Req: Now the same for `CN(C)CCCn1c(-c2cc(C(C)(C)C)c(O)c(C(C)(C)C)c2)cs/c1=N\c1ccccc1`
Resp: 17.8 µM (inactive)

Req: Now the same for `Cc1nc2ccccc2n1C(=O)c1c(F)c(F)c(F)c(F)c1F`
Resp: 16.7 µM (inactive)

Req: Now the same for `C[C@@H](c1ccccc1)N1CN(C(=O)OCc2ccccc2)C(C)(C)CC1=O`
Resp: > 100 µM (inactive)

Req: Now the same for CC(C)=CCC/C(C)=C/COc1c2ccoc2cc2oc(=O)ccc12 [BERGAMOTTIN]
Resp: 44 µM (inactive)

Req: Now the same for `Cc1ccc(NC(=O)C23CC4CC(CC(C4)C2)C3)c(C(=O)NNC(=O)c2ccc(Cl)cc2)c1`
Resp: 23.3 µM (inactive)

Req: Now the same for `c1ccc([P+](CCCCCCCC[P+](c2ccccc2)(c2ccccc2)c2ccccc2)(c2ccccc2)c2ccccc2)cc1`
Resp: > 100 µM (inactive)

Req: Now the same for `Cc1ncc([N+](=O)[O-])n1CCNC(=O)CCCn1ccnc1[N+](=O)[O-]`
Resp: > 100 µM (inactive)

Req: Now the same for O=C(/N=S(/NC(=O)c1ccccc1)C(Cl)(Cl)Cl)c1ccccc1 (centres undefined)
Resp: 20.9 µM (inactive)

Req: Now the same for `O=C(CCc1nnc2s/c(=C\c3ccc(Cl)cc3Cl)c(=O)n12)Nc1cc(Cl)c(Cl)cc1Cl`
Resp: > 10 µM (inactive)

Req: Now the same for `O=C(c1ccccc1Br)C(F)(F)F`
Resp: > 100 µM (inactive)

Req: Now the same for `Nc1nc(-c2ccccc2)cc(-c2ccc(OCc3ccccc3)cc2O)n1`
Resp: 57.1 µM (inactive)

Req: Now the same for Oc1ccc2c(c1)CC[N+]1=C2CCC2CCCC21 (centres undefined) [QUINDONIUM BROMIDE]
Resp: > 100 µM (inactive)

Req: Now the same for `CCCNC(=S)N/C=C1/C(=O)Oc2ccccc2C1=O`
Resp: > 100 µM (inactive)
